Source listed as patent US20040266802A1.

Item-by-item account of pIC50
# System: Na+ channels
# procedure-text: 22Na+ influx into SK-N-SH neuroblastoma cells under veratridine stimulation
# Type: cell-based
# assay-context: human SK-N-SH cells, veratridine-induced influx, 10 min at 37° C.; read-out: 22Na influx IC50
pIC50: −log10 of the molar value.

{"smiles-text": "COc1ccc2c(c1)C(=O)C1(CC2)CCN(CCC2CC2)CC1", "pIC50": 5.12}
{"smiles-text": "COc1ccc2c(c1)CCC1(CCN(CC3CCC3)CC1)C2=O", "pIC50": 5.22}
{"smiles-text": "O=C1c2ccccc2CCC12CCN(CCC1CC1)CC2", "pIC50": 5.47}
{"smiles-text": "O=C1c2ccccc2CCC12CCN(CC1CC1)CC2", "pIC50": 4.97}
{"smiles-text": "COc1ccc2c(c1)CCC1(CCN(CC3CC3)CC1)C2=O", "pIC50": 4.52}

----------
# assay-target: Na+ channel
# assay-context: rat cerebral cortex synaptosomes, 10 nM [3H]batrachotoxin, 90 min at 25° C.; read-out: [3H] BTX assay: Na+ channel binding Ki
pKi: −log10 of the molar value.

{"smiles-text": "O=C1c2ccccc2CCC12CCN(CCCc1ccccc1)CC2", "assay-target": "Na+ channel", "pKi": 6.54}
{"smiles-text": "COc1ccc2c(c1)C(=O)C1(CC2)CCN(CCC2CC2)CC1", "assay-target": "Na+ channel", "pKi": 5.66}
{"smiles-text": "COc1cccc2c1CCC1(CCN(CC3CCC3)CC1)C2=O", "assay-target": "Na+ channel", "pKi": 6.32}

----------
Where a name gives a salt, the structure may show the parent alone.
property-label: melting point

{"molecule": "O=C1c2ccccc2CCC12CCN(CCc1ccccc1)CC2 (as salt: hydrochloride)", "measured-value": "> 275 °C"}
{"molecule": "O=C1c2ccccc2CCC12CCN(CCC1CC1)CC2 (as salt: hydrochloride)", "measured-value": "244 °C"}
{"molecule": "COc1cccc2c1CCC1(CCN(CC3CC3)CC1)C2=O (as salt: hydrochloride)", "measured-value": "244 °C"}
{"molecule": "O=C1c2ccccc2CCC12CCN(C/C=C/c1ccccc1)CC2 (as salt: hydrochloride)", "measured-value": "228 °C"}
{"molecule": "Cc1cc(C)c2c(c1)C(=O)C1(CC2)CCN(CC2CC2)CC1 (as salt: hydrochloride)", "measured-value": "> 260 °C"}
{"molecule": "O=C1c2ccccc2CCC12CCN(CCC(c1ccccc1)c1ccccc1)CC2 (as salt: hydrochloride)", "measured-value": "257 °C"}
{"molecule": "O=C1c2ccccc2CCC12CCNCC2 (as salt: hydrochloride)", "measured-value": "235 °C"}
{"molecule": "O=C1c2ccccc2CCC12CCN(CC1CCCCC1)CC2 (as salt: hydrochloride)", "measured-value": "265 °C"}
{"molecule": "COc1ccc2c(c1)CCC1(CCN(CC3CC3)CC1)C2=O (as salt: hydrochloride)", "measured-value": "> 255 °C"}
{"molecule": "O=C1c2ccccc2CCC12CCN(CC1CCC1)CC2 (as salt: hydrochloride)", "measured-value": "235 °C"}
{"molecule": "O=C1c2ccccc2CCC12CCN(CC1CC1)CC2 (as salt: hydrochloride)", "measured-value": "243 °C"}
